ASSAYED TARGET: PARP-1 enzyme (Homo sapiens)
Construct: made in house
TEST: In vitro Scintillation Proximity Assay (SPA) for PARP-1 inhibitory activity
Assay type: biochemical
PARTICULARS: nicked DNA activated PARP-1, [3H]-NAD+, biotinylated histones; read-out: In vitro SPA pIC50 (converted)
Can you tell me IC50 for the items I'm about to list?
Give bare numbers, in nM.

Would you mind giving IC50 for every molecule in the list below?
1. CCc1cc2cc(C(c3ccc4c(c3)OCCO4)C3CC[N+](C/C=C/c4ccccc4)(C/C=C/c4ccccc4)CC3)ccc2[nH]c1=O (centres unmarked)
2. CCc1cc2cc(C(NCCCN3CCCCC3)c3ccccc3)ccc2[nH]c1=O (centres unmarked)
3. CCc1cc2cc(C(c3ccccc3)N3CCN(C)CC3)ccc2[nH]c1=O (centres unmarked)
4. CCc1cc2cc(C(c3cccc(Cl)c3)N3CCC(=O)CC3)ccc2[nH]c1=O (centres unmarked)

1: 119; 2: 119; 3: 596; 4: 252

Provide each entry's IC50 from the list below.
1. CCc1nc2cc(CC(c3ccc(Cl)cc3)n3ccnc3)ccc2[nH]c1=O (centres unmarked)
2. CCc1cc2cc(C(=C3CCN(CC(O)COc4ccc(F)cc4)CC3)c3ccc4c(c3)OCCO4)ccc2[nH]c1=O (centres unmarked)
3. CCc1cc2cc(C(=C3CCN(CCCn4c(=O)[nH]c5ccccc54)CC3)c3ccc4c(c3)OCCO4)ccc2[nH]c1=O
4. CCc1cc2cc(C(c3ccc(OCCCN(C)C)cc3)N3CCC(NCCOC)CC3)ccc2[nH]c1=O (centres unmarked)

275
157
121
299

====

ASSAYED TARGET: PARP-1 enzyme (Homo sapiens, UniProt P09874)
Construct: made in house
Sequence (P09874 whole entry): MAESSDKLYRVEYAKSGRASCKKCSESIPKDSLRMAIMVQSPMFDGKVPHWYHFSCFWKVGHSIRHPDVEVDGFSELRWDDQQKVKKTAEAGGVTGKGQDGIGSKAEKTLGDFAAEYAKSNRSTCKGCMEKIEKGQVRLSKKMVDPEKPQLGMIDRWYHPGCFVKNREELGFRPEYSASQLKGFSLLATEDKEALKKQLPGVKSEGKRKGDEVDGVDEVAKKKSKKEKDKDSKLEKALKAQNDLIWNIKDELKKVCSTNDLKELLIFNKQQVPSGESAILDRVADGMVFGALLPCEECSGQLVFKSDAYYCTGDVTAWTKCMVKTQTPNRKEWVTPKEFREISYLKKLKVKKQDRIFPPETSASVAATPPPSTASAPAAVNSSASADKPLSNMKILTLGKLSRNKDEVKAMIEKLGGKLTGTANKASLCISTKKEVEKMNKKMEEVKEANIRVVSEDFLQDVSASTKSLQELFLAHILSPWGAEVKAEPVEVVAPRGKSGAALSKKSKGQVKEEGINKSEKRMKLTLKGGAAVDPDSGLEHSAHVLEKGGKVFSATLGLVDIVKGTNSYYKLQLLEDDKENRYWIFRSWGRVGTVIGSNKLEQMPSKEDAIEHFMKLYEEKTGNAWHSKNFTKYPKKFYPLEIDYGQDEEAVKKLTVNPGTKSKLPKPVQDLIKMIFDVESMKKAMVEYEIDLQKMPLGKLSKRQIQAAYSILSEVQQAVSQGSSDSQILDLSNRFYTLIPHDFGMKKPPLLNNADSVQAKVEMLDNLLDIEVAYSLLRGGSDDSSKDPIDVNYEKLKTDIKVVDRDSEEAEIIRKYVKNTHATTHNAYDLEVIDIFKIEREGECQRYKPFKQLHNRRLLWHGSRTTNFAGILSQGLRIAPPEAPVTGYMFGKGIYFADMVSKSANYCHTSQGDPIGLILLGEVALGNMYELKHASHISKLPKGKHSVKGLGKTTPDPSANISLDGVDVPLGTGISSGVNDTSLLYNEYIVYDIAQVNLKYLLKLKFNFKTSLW
TEST: In vitro Scintillation Proximity Assay (SPA) for PARP-1 inhibitory activity
Assay type: biochemical
PARTICULARS: nicked DNA activated PARP-1, [3H]-NAD+, biotinylated histones; read-out: In vitro SPA pIC50 (converted)
Entries whose IC50 is below 500 nM take condition met; entries at or above 500 nM take condition not met.

Worked cases, answers included:
COMPOUND: Cc1cc2cc(C(NC(=O)NCCCN3CCCCC3)c3ccccc3)ccc2[nH]c1=O (stereo not drawn)
ASSIGNED CLASS: condition not met
//
COMPOUND: CCc1cc2cc(C(c3cccc(C(F)(F)F)c3)N3CCC(NCCOC)CC3)ccc2[nH]c1=O (stereo not drawn)
ASSIGNED CLASS: condition not met
//
COMPOUND: CCc1nc2cc(CC(c3ccccc3)n3ccnc3)ccc2[nH]c1=O (stereo not drawn)
ASSIGNED CLASS: condition met

Determine whether this compound shows IC50 lower than 500 nM (ties excluded): O=c1[nH]c2ccc(C(NCCN3CCC(c4n[nH]c5cc(F)ccc45)CC3)c3cccc(C(F)(F)F)c3)cc2c2ccccc12 (stereo not drawn)
condition not met

Just wondering, is IC50 of "CCc1cc2cc(/C(=C/CN3CCCCC3)c3ccc4c(c3)OCCO4)ccc2[nH]c1=O" below 500 nM?
condition met

Is it true that IC50 reported for "CCc1cc2cc(/C(=C/CN(C)C)c3ccc4c(c3)OCCO4)ccc2[nH]c1=O" is less than 500 nM?
condition met

Please determine if CCc1cc2cc(C(c3ccccc3)N3CCC(=O)CC3)ccc2[nH]c1=O (stereo not drawn) is below 500 nM in terms of IC50.
condition met

Please state whether IC50 is below 500 nM for CCc1cc2cc(C(c3ccc4c(c3)OCCO4)N3CCN(CCN4CCCCCC4)CC3)ccc2[nH]c1=O (stereo not drawn)
condition met

In plain terms, does CCc1cc2cc(C(c3ccc4c(c3)OCO4)n3nc(C4CCNCC4)c4ccc(F)cc43)ccc2[nH]c1=O (stereo not drawn) come in under 500 nM for IC50?
condition not met

Is the reported IC50 for CCc1cc2cc(C(=C3CCN(CC(O)COc4ccc(OC)cc4)CC3)c3ccc4c(c3)OCCO4)ccc2[nH]c1=O (stereo not drawn) strictly below 500 nM?
condition met

Confirm or reject: IC50 of "CCc1cc2cc(/C(=C\CN(C)C)c3ccc4c(c3)OCCO4)ccc2[nH]c1=O" lies strictly below 500 nM
condition met

Quick check: does CCc1nc2cc(CCC(c3ccc(Cl)cc3)n3ccnc3)ccc2[nH]c1=O (stereo not drawn) have IC50 under 500 nM?
condition not met

Strictly below 500 nM: is that where IC50 of "CCc1cc2cc(C(=C3CCN(C/C=C/c4ccccc4)CC3)c3ccc4c(c3)OCCO4)ccc2[nH]c1=O" sits?
condition met

Problem: For the compound CCc1cc2cc(C(c3cccc(C(F)(F)F)c3)n3cnnc3)ccc2[nH]c1=O (stereo not drawn) , is IC50 under 500 nM?
condition met

State whether 500 nM exceeds IC50 recorded for CCc1cc2cc(C(NCCCN3CCCCC3)c3ccc4c(c3)OCCO4)ccc2[nH]c1=O (stereo not drawn) .
condition met

Dear colleague, could you confirm whether IC50 of "CCc1cc2cc(/C(=C\CN3CCCCC3)c3ccc4c(c3)OCCO4)ccc2[nH]c1=O" falls below 500 nM? Thanks.
condition met

Is the reported IC50 for CCc1nc2cc(CC(c3ccc(Cl)cc3)N3CCCCC3)ccc2[nH]c1=O (stereo not drawn) strictly below 500 nM?
condition not met

Does the reported IC50 of Cc1cccc(C(NC=O)c2ccc3[nH]c(=O)c(C)cc3c2)c1 (stereo not drawn) stay below 500 nM?
condition met

====

ASSAYED TARGET: PARP-1 enzyme (Homo sapiens, UniProt P09874)
Construct: made in house
TEST: In vitro Scintillation Proximity Assay (SPA) for PARP-1 inhibitory activity
Type: biochemical
PARTICULARS: nicked DNA activated PARP-1, [3H]-NAD+, biotinylated histones; read-out: In vitro SPA pIC50 (converted)
Can you tell me IC50 for the items I'm about to list?
Answers are plain numbers, in nM.

Here is how some compounds turned out for IC50.
COMPOUND: CCc1cc2cc(C(=C3CCN(CCc4ccc(OC)cc4)CC3)c3ccc4c(c3)OCCO4)ccc2[nH]c1=O
MEASUREMENT KIND: IC50
RESULT NUMBER: 57.1
//
COMPOUND: COc1cccc(C(O)c2ccc3[nH]c(=O)c(C)cc3c2)c1 (stereo not drawn)
MEASUREMENT KIND: IC50
RESULT NUMBER: 841
//
COMPOUND: CCc1cc2cc(C(c3cccc(F)c3)N3CCC(NCCOC)CC3)ccc2[nH]c1=O (stereo not drawn)
MEASUREMENT KIND: IC50
RESULT NUMBER: 217
//
COMPOUND: CC(=O)NCCNC(c1ccccc1)c1ccc2[nH]c(=O)c(C)cc2c1 (stereo not drawn)
MEASUREMENT KIND: IC50
RESULT NUMBER: 498
//
COMPOUND: CCc1cc2cc(C(c3ccc4c(c3)OCCO4)N3CCC(NCCOC)CC3)ccc2[nH]c1=O (stereo not drawn)
MEASUREMENT KIND: IC50
RESULT NUMBER: 25.7

Here's the next entry for you.
Reported IC50, compound CC(=O)NCC(c1ccccc1)c1ccc2[nH]c(=O)c(C)cc2c1 (stereo not drawn) : ____
213

====

ASSAYED TARGET: PARP-1 enzyme (Homo sapiens, UniProt P09874)
Construct: made in house
TEST: In vitro filtration assay for PARP-1 inhibitory activity
Assay type: biochemical
PARTICULARS: nicked DNA activated PARP-1, [32P]-NAD, histones; read-out: In vitro filtration assay pIC50 (converted)
MEASUREMENT KIND: log10 of IC50 (log10 of the value in µM)
Scale: decimal log of IC50, IC50 in µM.

Please review the entries below; each comes with its answer.
COMPOUND: Cc1cc2cc(C(c3ccccc3)C3CCCN(C)C3)ccc2[nH]c1=O (stereo not drawn) [Compound 88]
ASSAYED TARGET: PARP-1 enzyme (Homo sapiens, UniProt P09874)
log10 of IC50: 0.61
//
COMPOUND: CCc1nc2cc(C(c3ccc(Cl)cc3)n3cnc(C)c3)ccc2[nH]c1=O (stereo not drawn) [Compound 122]
ASSAYED TARGET: PARP-1 enzyme (Homo sapiens, UniProt P09874)
log10 of IC50: 0.43
//
COMPOUND: CCc1nc2cc(C(c3cccc(F)c3)n3ccnc3)ccc2[nH]c1=O (stereo not drawn) [Compound 115]
ASSAYED TARGET: PARP-1 enzyme (Homo sapiens, UniProt P09874)
log10 of IC50: 0.54
//
COMPOUND: Cc1cc2cc(C(NC=O)c3ccc4c(c3)OCO4)ccc2[nH]c1=O (stereo not drawn) [Compound 99]
ASSAYED TARGET: PARP-1 enzyme (Homo sapiens, UniProt P09874)
log10 of IC50: 0.17
//
COMPOUND: CCOC(=O)c1ccc(C(NC=O)c2ccc3[nH]c(=O)c(C)cc3c2)cc1 (stereo not drawn) [Compound 100]
ASSAYED TARGET: PARP-1 enzyme (Homo sapiens, UniProt P09874)
log10 of IC50: 0.55

Could you tell me log10 of IC50 for each of these compounds? They are listed below.
1. Cc1cc2cc(C(c3ccc(Cl)cc3)n3ccnc3)ccc2[nH]c1=O (stereo not drawn) [Compound 95]
2. CCc1cc2cc(C(c3ccccc3)N3CCC(NCCOC)CC3)ccc2[nH]c1=O (stereo not drawn) [Compound 13]
3. CCc1cc2cc(C(O)c3ccccc3)ccc2[nH]c1=O (stereo not drawn) [Compound 110]
4. CCc1cc2cc(/C(=C\CN(C)C)c3ccccc3)ccc2[nH]c1=O [Compound 140]
5. COc1cccc(C(O)c2ccc3[nH]c(=O)c(C)cc3c2)c1 (stereo not drawn) [Compound 107]
6. Cc1cc2cc(C(NC=O)c3ccccc3)ccc2[nH]c1=O (stereo not drawn) [Compound 106]
7. CCc1cc2cc(C(c3cccc(C(F)(F)F)c3)N3CCC(NCCOC)CC3)ccc2[nH]c1=O (stereo not drawn) [Compound 87]
8. CCc1cc2cc(C(c3ccccc3)N3CCN(C)CC3)ccc2[nH]c1=O (stereo not drawn) [Compound 39]

1: 0.80; 2: 0.32; 3: 0.41; 4: 0.33; 5: 1.00; 6: 0.23; 7: 0.69; 8: 1.00

For every listed record, write down its log10 of IC50.
1. Cc1cc2cc(C(C)(C#N)c3ccccc3)ccc2[nH]c1=O (stereo not drawn) [Compound 85]
2. Cc1cc2cc(C(NC(=O)NCCCN3CCCCC3)c3ccccc3)ccc2[nH]c1=O (stereo not drawn) [Compound 7]
3. CCc1nc2cc(C(c3cccc(Cl)c3)n3ccnc3)ccc2[nH]c1=O (stereo not drawn) [Compound 123]
4. CNC(c1ccccc1)c1ccc2[nH]c(=O)c(C)cc2c1 (stereo not drawn) [Compound 1]

1: 0.08; 2: 0.87; 3: 0.52; 4: 0.37
